Listed here: items and their measured Emax.
# measuredOn: M4 muscarinic receptor (Homo sapiens, UniProt P08173)
# Construct: expressed in transfected cells; host or cells: CHO (M4-CHO)
# Sequence (P08173 whole entry): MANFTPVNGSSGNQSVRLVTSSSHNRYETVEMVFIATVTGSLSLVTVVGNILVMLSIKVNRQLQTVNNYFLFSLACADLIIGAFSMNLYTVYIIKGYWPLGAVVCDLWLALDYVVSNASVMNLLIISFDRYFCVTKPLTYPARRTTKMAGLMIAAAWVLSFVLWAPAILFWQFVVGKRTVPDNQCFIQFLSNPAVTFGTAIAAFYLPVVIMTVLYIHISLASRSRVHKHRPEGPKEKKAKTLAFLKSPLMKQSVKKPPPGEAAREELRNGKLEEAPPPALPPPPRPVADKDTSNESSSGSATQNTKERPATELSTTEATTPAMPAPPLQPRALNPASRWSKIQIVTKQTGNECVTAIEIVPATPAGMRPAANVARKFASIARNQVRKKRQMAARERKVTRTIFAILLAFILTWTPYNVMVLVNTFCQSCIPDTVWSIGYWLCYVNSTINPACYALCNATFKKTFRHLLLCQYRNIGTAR
# experimentalProtocol: Functional mobilization of intracellular calcium (FLIPR) in CHO cells expressing M4
# Type: cell-based
# assayContext: CHO; 100% = maximum response obtained with the Carbachol control; read-out: M4 Efficacy

Take a look at these entries with their results.
Notebook: C[C@@H](C(=O)N[C@H]1CCC2(CCN(CCC(C)(C)C)CC2)c2cc(F)ccc21)N1CCCC1=O [compound 106] , Emax read as 25 to 100%

Notebook: CCN(C(=O)COC)[C@H]1CCC2(CCN(CCC(C)(C)C)CC2)c2ccccc21 [compound 181] , Emax read as 25 to 100%

Notebook: CC(C)(C)CCN1CCC2(CC[C@H](N3C(=O)CCC3=O)c3ccccc32)CC1 [compound 102] , Emax read as 25 to 100%

Notebook: COCCC(=O)N[C@@H]1CCC2(CCN(CCC(C)(C)C)CC2)c2ccccc21 [compound 105] , Emax read as 25 to 100%

Further cases:
Notebook: CC(C)(C)CCN1CCC2(CC[C@@H](NC(=O)C3CCCO3)c3ccc(F)cc32)CC1 (some centres unmarked) [compound 133] , Emax read as 25 to 100%

Notebook: Cn1cnc(C(=O)N[C@H]2CCC3(CCN(CCC(C)(C)C)CC3)c3ccccc32)c1 [compound 98] , Emax read as 25 to 100%

Notebook: CC(C)(C)CCN1CCC2(CC[C@H](NS(C)(=O)=O)c3ccccc32)CC1 [compound 1] , Emax read as 25 to 100%

Notebook: CCN(C(=O)CCC(C)=O)[C@H]1CCC2(CCN(CCC(C)(C)C)CC2)c2ccccc21 [compound 54] , Emax read as 25 to 100%

---

Listed here: items and their measured EC50.
# measuredOn: M4 muscarinic receptor (Homo sapiens)
# experimentalProtocol: Functional mobilization of intracellular calcium (FLIPR) in CHO cells expressing M4
# assayContext: CHO cells expressing M4, FLIPR calcium

Take a look at these entries with their results.
Notebook: "CCCCN1CCC2(CC[C@H](NC(C)=O)c3ccccc32)CC1" , EC50 read as 2 to 5 µM

Notebook: "CC(C)C[C@@H](C(=O)N[C@@H]1CCC2(CCN(CCC(C)(C)C)CC2)c2ccccc21)N1CCCC1=O" , EC50 read as < 2 µM

Notebook: CC(C)(C)CCN1CCC2(CCC(C#N)c3ccccc32)CC1 (centres unmarked) , EC50 read as < 2 µM

Notebook: "COC(=O)CCCN1CCC2(CC[C@H](NC(C)=O)c3ccccc32)CC1" , EC50 read as > 5 µM

Notebook: "CC(C)(C)CCN1CCC2(CC[C@H](NC(=O)CC3CCOCC3)c3ccc(F)cc32)CC1" , EC50 read as < 2 µM

Further cases:
Notebook: "CC(C)(C)CCN1CCC2(CC[C@H](NC(=O)CCN3CCCC3=O)c3ccccc32)CC1" , EC50 read as < 2 µM

Notebook: "CC(C)(C)CCN1CCC2(CC[C@H](NC(=O)C3CCN(C(=O)c4ccccc4)CC3)c3ccccc32)CC1" , EC50 read as < 2 µM

Notebook: "Cn1cc(C(=O)N[C@@H]2CCC3(CCN(CCC(C)(C)C)CC3)c3ccccc32)cn1" , EC50 read as < 2 µM

---

# measuredOn: M1 muscarinic receptor (Homo sapiens)
# Construct: expressed in transfected cells; host or cells: CHO (M1-CHO)
# Sequence (P11229 1-460): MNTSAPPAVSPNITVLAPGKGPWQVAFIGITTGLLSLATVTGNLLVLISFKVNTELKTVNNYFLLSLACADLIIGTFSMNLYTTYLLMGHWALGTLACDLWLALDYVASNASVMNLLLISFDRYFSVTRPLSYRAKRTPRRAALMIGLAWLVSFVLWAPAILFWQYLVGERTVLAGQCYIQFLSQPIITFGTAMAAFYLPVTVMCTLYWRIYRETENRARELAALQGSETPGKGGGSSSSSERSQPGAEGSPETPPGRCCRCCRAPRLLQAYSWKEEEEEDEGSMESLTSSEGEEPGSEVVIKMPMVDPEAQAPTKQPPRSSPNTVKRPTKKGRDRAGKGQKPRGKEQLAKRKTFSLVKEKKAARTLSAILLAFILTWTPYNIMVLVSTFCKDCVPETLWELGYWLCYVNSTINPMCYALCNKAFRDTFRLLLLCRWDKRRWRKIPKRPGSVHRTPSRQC
# experimentalProtocol: Functional mobilization of intracellular calcium (FLIPR) in CHO cells expressing M1
# Type: cell-based
# assayContext: CHO; 100% = maximum response obtained with the Carbachol control; read-out: M1 Efficacy
measurementType: Emax

Take a look at these entries with their results.
Bench note, M1 muscarinic receptor (Homo sapiens): entry "Cn1cc(C(=O)N[C@H]2CCC3(CCN(CCC(C)(C)C)CC3)c3ccccc32)cn1" , its Emax = 25 to 100%

Bench note, M1 muscarinic receptor (Homo sapiens): entry "CC(=O)NCCC(=O)N[C@H]1CCC2(CCN(CCC(C)(C)C)CC2)c2cc(F)ccc21" , its Emax = 25 to 100%

Bench note, M1 muscarinic receptor (Homo sapiens): entry "CC(=O)N[C@H]1CCC2(CCN(CCCCC(C)(C)C#N)CC2)c2ccccc21" , its Emax = 25 to 100%

Bench note, M1 muscarinic receptor (Homo sapiens): entry "CC(C)(C)CCN1CCC2(CCC(=O)c3ccccc32)CC1" , its Emax = 25 to 100%

Bench note, M1 muscarinic receptor (Homo sapiens): entry "CCN(C(=O)CCC(F)(F)F)[C@H]1CCC2(CCN(CCC(C)(C)C)CC2)c2ccccc21" , its Emax = 25 to 100%

Bench note, M1 muscarinic receptor (Homo sapiens): entry CC(C)(C)CCN1CCC2(CC[C@H](NC(=O)CC3CCCC3=O)c3ccc(F)cc32)CC1 (stereo partly shown) , its Emax = 25 to 100%

Further cases:
Bench note, M1 muscarinic receptor (Homo sapiens): entry "CC(=O)N1CCCC[C@@H]1C(=O)N[C@@H]1CCC2(CCN(CCC(C)(C)C)CC2)c2cc(F)ccc21" , its Emax = 25 to 100%

Bench note, M1 muscarinic receptor (Homo sapiens): entry "CC(C)(C)CCN1CCC2(CC[C@H](NC(=O)C3CC3)c3ccccc32)CC1" , its Emax = 25 to 100%

Bench note, M1 muscarinic receptor (Homo sapiens): entry "C[C@H](C(=O)N[C@H]1CCC2(CCN(CCC(C)(C)C)CC2)c2ccccc21)N1CCCC1=O" , its Emax = 25 to 100%

Bench note, M1 muscarinic receptor (Homo sapiens): entry "CC(C)[C@@H](C(=O)N[C@H]1CCC2(CCN(CCC(C)(C)C)CC2)c2ccccc21)N1CCCC1=O" , its Emax = 25 to 100%

Bench note, M1 muscarinic receptor (Homo sapiens): entry "CC(C)(C)CCN1CCC2(CC[C@H](NC(=O)CN3CCCCCC3=O)c3ccccc32)CC1" , its Emax = 25 to 100%

Bench note, M1 muscarinic receptor (Homo sapiens): entry CC(=O)N1CCCC(C(=O)N[C@H]2CCC3(CCN(CCC(C)(C)C)CC3)c3ccccc32)C1 (stereo partly shown) , its Emax = 25 to 100%

Bench note, M1 muscarinic receptor (Homo sapiens): entry "CC(=O)N1CCC(C(=O)N(C)[C@H]2CCC3(CCN(CCC(C)(C)C)CC3)c3ccccc32)CC1" , its Emax = 25 to 100%

Bench note, M1 muscarinic receptor (Homo sapiens): entry "CC(=O)N(C(C)C)[C@H]1CCC2(CCN(CCC(C)(C)C)CC2)c2ccccc21" , its Emax = 25 to 100%

Bench note, M1 muscarinic receptor (Homo sapiens): entry "CC(C)(C)CCN1CCC2(CCCc3ccccc32)CC1" , its Emax = 25 to 100%

---

# measuredOn: M2 muscarinic receptor (Homo sapiens, UniProt P08172)
# Sequence (P08172 whole entry): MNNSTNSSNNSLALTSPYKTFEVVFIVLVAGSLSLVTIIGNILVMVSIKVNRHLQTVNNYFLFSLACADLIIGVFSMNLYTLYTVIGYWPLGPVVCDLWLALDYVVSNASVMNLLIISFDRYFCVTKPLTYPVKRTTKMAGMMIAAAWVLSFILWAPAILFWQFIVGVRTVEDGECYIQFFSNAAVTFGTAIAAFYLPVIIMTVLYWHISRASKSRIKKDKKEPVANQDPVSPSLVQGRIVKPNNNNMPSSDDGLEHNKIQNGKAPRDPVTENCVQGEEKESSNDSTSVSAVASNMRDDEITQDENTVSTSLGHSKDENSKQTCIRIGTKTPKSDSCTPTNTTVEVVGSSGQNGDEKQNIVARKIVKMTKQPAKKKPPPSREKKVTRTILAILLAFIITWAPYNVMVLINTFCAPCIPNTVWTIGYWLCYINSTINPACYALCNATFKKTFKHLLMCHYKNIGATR
# experimentalProtocol: Functional mobilization of intracellular calcium (FLIPR) in CHO cells expressing M2
# assayContext: CHO cells expressing M2, FLIPR calcium
measurementType: EC50

Notebook: "CCN(C(=O)[C@@H](C)OC)[C@H]1CCC2(CCN(CCC(C)(C)C)CC2)c2ccccc21" , EC50 read as > 5 µM

Notebook: "CN([C@H]1CCC2(CCN(CCC(C)(C)C)CC2)c2ccccc21)S(C)(=O)=O" , EC50 read as > 5 µM

Notebook: "CCOCC(=O)N[C@H]1CCC2(CCN(CCC(C)(C)C)CC2)c2ccccc21" , EC50 read as < 2 µM

Notebook: "CC(C)CCN1CCC2(CCCc3ccccc32)CC1" , EC50 read as > 5 µM

Kindly review the next compound as well.
Notebook: "COCCC(=O)N[C@H]1CCC2(CCN(CCC(C)(C)C)CC2)c2ccccc21" , EC50 read as < 2 µM

---

# measuredOn: M1 muscarinic receptor (Homo sapiens, UniProt P11229)
# experimentalProtocol: Functional mobilization of intracellular calcium (FLIPR) in CHO cells expressing M1
# assayContext: CHO cells expressing M1, FLIPR calcium
measurementType: EC50

Take a look at these entries with their results.
Notebook: "CCN(C(=O)[C@@H](C)OC)[C@H]1CCC2(CCN(CCC(C)(C)C)CC2)c2ccccc21" , EC50 read as > 5 µM

Notebook: "CCOCC(=O)N[C@H]1CCC2(CCN(CCC(C)(C)C)CC2)c2ccccc21" , EC50 read as < 2 µM

Notebook: "CCN(C(C)=O)[C@H]1CCC2(CCN(CCC(C)(C)C)CC2)c2cc(F)ccc21" , EC50 read as < 2 µM

Notebook: "CCOCC(=O)N[C@@H]1CCC2(CCN(CCC(C)(C)C)CC2)c2ccccc21" , EC50 read as > 5 µM

Notebook: "CCN(C(=O)CC(C)(C)O)[C@H]1CCC2(CCN(CCC(C)(C)C)CC2)c2ccccc21" , EC50 read as 2 to 5 µM

Notebook: "CC(C)(C)CCN1CCC2(CC[C@H](N3C(=O)CCC3=O)c3ccccc32)CC1" , EC50 read as 2 to 5 µM

Notebook: "CCN(C(=O)COC)[C@H]1CCC2(CCN(CCC(C)(C)C)CC2)c2ccccc21" , EC50 read as 2 to 5 µM

Kindly review the next compound as well.
Notebook: "CCN(C(=O)CC(F)(F)F)[C@H]1CCC2(CCN(CCC(C)(C)C)CC2)c2ccccc21" , EC50 read as 2 to 5 µM
